target: opioid κ receptor (Homo sapiens); construct: expressed in transfected cells; host or cells: CHO cells; assay: Opioid receptor functional test (Lance Ultra cAMP Kit), κ receptor agonist activity; type: cell-based; conditions: maximum concentration (10 μM), reaction did not reach the maximum, EC50 N.C.; relative to U-69593; hydrochloride was used; read-out: κ Receptor responce rate at the maximum concentration (reference value)
Sequence (P41145 whole entry): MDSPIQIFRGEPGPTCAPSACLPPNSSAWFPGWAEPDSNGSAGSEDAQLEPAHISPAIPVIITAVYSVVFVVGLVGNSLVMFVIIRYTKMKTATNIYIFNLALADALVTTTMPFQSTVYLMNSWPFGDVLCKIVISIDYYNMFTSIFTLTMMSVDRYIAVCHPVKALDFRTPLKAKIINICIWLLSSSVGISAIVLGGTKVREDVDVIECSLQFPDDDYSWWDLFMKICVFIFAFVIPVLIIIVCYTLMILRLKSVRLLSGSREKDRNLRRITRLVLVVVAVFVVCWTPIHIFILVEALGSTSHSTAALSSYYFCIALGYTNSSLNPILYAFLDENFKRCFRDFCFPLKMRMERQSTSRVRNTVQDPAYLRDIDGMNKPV
# Emax at 10 µM per entry
Only the number, expressed in %, is required.

# count of solved cases: 4
| compound | unitDescriptor | Emax at 10 µM |
| --- | --- | --- |
| COc1ccc2c(c1)[C@]13CCN(CC4CC4)[C@H](C2)[C@]12CCC1C3[C@@H](CN1c1nc(C)cc(C)n1)C2 (some centres unmarked) | % | 43 |
| CCCN1CC[C@@]23c4cc(O)ccc4C[C@@H]1[C@]21CC[C@@H]2[C@H]3[C@@H](CN2C(=O)c2ccccc2)C1 | % | 2.1 |
| NC(=O)c1ccc2c(c1)[C@]13CCN(CC4CC4)[C@H](C2)[C@]12CCC1C3[C@@H](CN1C(=O)c1ccccc1)O2 (some centres unmarked) | % | 9.5 |
| O=C(c1ccccc1)N1C[C@H]2O[C@@]34CC[C@@H]1[C@@H]2[C@@]31CCN(CCO)[C@@H]4Cc2ccc(O)cc21 | % | 33 |

Now consider the entry below.
stdin: Query for opioid κ receptor (Homo sapiens): what Emax at 10 µM does the record show for O=C(/C=C/c1ccccc1)N1C[C@H]2OC34CCC1C2C31CCN(CC2CC2)C4Cc2ccc(O)cc21 (some centres unmarked) ?
stdout: 25

----------
target: opioid μ receptor (Homo sapiens, UniProt P35372); construct: expressed in transfected cells; host or cells: CHO cells; experiment: Opioid receptor functional test (Lance Ultra cAMP Kit), μ receptor agonist activity; format: cell-based; conditions: maximum response relative to DAMGO taken as 100%; hydrochloride was used; read-out: μ Receptor Emax
Sequence (P35372 whole entry): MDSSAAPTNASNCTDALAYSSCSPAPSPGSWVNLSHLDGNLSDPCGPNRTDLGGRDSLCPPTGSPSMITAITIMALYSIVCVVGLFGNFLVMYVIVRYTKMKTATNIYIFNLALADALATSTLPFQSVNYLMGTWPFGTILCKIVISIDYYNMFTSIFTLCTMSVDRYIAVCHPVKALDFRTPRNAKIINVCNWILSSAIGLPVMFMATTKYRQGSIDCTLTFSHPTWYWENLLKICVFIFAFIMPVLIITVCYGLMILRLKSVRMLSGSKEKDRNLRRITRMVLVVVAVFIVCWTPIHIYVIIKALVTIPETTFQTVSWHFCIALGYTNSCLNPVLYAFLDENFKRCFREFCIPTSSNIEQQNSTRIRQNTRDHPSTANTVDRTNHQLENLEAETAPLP
readout: Emax (%)
Only the number, expressed in %, is required.

| compound | Emax / % |
| --- | --- |
| Cc1cc(C)nc(N2C[C@H]3CC45CCC2C3C42CCN(CC(F)(F)c3ccccc3)C5Cc3ccc(O)cc32)n1 (stereo partly drawn) | 101 |
| Cc1cc(C)nc(N2C[C@H]3CC45CCC2C3C42CCN(CC3CC3)C5Cc3ccccc32)n1 (stereo partly drawn) | 26 |
| Oc1ccc2c(c1)[C@]13CCN(CC4CC4)[C@H](C2)[C@]12CCC1C3[C@@H](CN1c1ccccn1)C2 (stereo partly drawn) | 30 |
| Cc1cc(C)nc(N2C[C@H]3CC45CCC2C3C42CCN(C[C@H](C)O)C5Cc3ccc(O)cc32)n1 (stereo partly drawn) | 48 |
| CN1CC[C@@]23c4cc(O)ccc4C[C@@H]1[C@]21CC[C@@H]2[C@H]3[C@@H](CN2C(=O)c2ccccc2)O1 | 103 |

stdin: Field request: Emax | item: Cc1cc(C)nc(N2C[C@H]3C[C@@]45CCC2C3[C@@]42CCN(CC3CC3)[C@@H]5Cc3cccc(O)c32)n1 (stereo partly drawn)
stdout: 17

stdin: Field request: Emax | item: `O=C(c1ccccc1)N1C[C@H]2O[C@@]34CC[C@@H]1[C@@H]2[C@@]31CCN(CC2CC2)[C@@H]4Cc2cccc(O)c21`
stdout: 56

stdin: Field request: Emax | item: COc1cc2c(cc1[N+](=O)[O-])C[C@H]1N(CC3CC3)CC[C@@]23C2C4CC[C@@]13C[C@@H]2CN4c1nc(C)cc(C)n1 (stereo partly drawn)
stdout: 18

stdin: Field request: Emax | item: O=C(c1ccccc1)N1C[C@H]2C[C@@]34CCC1C2[C@@]31CCN(CC2CC2)[C@@H]4Cc2ccccc21 (stereo partly drawn)
stdout: 16

stdin: Field request: Emax | item: COc1ccc2c(c1)[C@]13CCN(CC4CC4)[C@H](C2)[C@]12CCC1C3[C@@H](CN1c1nc(C)cc(C)n1)C2 (stereo partly drawn)
stdout: 52

stdin: Field request: Emax | item: `O=C(c1ccccc1)N1C[C@H]2O[C@@]34CC[C@@H]1[C@@H]2[C@@]31CCN(CCO)[C@@H]4Cc2ccc(O)cc21`
stdout: 34

stdin: Field request: Emax | item: `O=S(=O)(c1ccccc1)N1C[C@H]2O[C@@]34CC[C@@H]1[C@@H]2[C@@]31CCN(CC2CC2)[C@@H]4Cc2ccc(O)cc21`
stdout: 54

----------
target: opioid δ receptor (Homo sapiens, UniProt P41143); construct: expressed in transfected cells; host or cells: CHO cells; experiment: Opioid receptor functional test (Lance Ultra cAMP Kit), δ receptor agonist activity; type: cell-based; conditions: maximum response relative to SNC80 taken as 100%; hydrochloride was used; read-out: δ Receptor Emax
Sequence (P41143 whole entry): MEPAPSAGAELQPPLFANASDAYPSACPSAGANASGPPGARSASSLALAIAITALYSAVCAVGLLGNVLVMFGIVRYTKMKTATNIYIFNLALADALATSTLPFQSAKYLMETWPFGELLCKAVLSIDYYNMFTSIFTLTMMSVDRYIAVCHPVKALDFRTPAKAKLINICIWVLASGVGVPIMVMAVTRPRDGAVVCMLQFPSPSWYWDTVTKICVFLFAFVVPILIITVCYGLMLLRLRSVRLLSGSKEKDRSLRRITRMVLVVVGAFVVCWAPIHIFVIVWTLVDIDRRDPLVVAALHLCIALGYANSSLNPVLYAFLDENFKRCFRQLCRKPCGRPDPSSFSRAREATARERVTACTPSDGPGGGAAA
# Emax per entry
Only the number, expressed in %, is required.

# count of solved cases: 3
| molecule | Emax / % |
| --- | --- |
| O=C(c1ccccc1)N1C[C@H]2C[C@@]34CCC1C2[C@@]31CCN(CC2CC2)[C@@H]4Cc2ccccc21 (stereo partly shown) [Compound 298] | 102 |
| Oc1ccc2c(c1)C13CCN(CC4CC4)C(C2)C12CCC1C3[C@@H](CN1c1nc(-c3ccccc3)cs1)C2 (stereo partly shown) [Compound 242] | 68 |
| Cc1cc(C)nc(N2C[C@H]3CC45CCC2C3C42CCN(CC(F)(F)c3ccccc3)C5Cc3ccc(O)cc32)n1 (stereo partly shown) [Compound 283] | 91 |

Now consider the entry below.
stdin: Field request: Emax | item: NC(=O)c1ccc2c(c1)[C@]13CCN(CC4CC4)[C@H](C2)[C@]12CCC1C3[C@@H](CN1C(=O)c1ccccc1)O2 (stereo partly shown) [Compound 306]
stdout: 84

----------
Molecular target: opioid κ receptor (Homo sapiens)
Construct: expressed in transfected cells; host or cells: CHO cells
Test: Opioid receptor functional test (Lance Ultra cAMP Kit), κ receptor agonist activity
Type: cell-based
Settings: CHO cells expressing κ opioid receptor, 10 μM forskolin, cAMP; hydrochloride was used; read-out: κ Receptor EC50 value
Procedure: Functional activities of the compounds of the present invention for the μ, […], and κ opioid receptors were investigated. The test was performed according to a prescribed method by using Lance Ultra cAMP Kit (Perkin-Elmer). The agonist activities were evaluated as follows. […] Then, the cAMP detection reagent included in the kit was added, and after 1 hour, time-resolved fluorescence measurements were performed by using the EnVision plate reader (Perkin-Elmer). […]
# EC50 per entry

# count of solved cases: 6
| molecule | readout | result |
| --- | --- | --- |
| Oc1ccc2c(c1)[C@]13CCN(CC4CC4)[C@H](C2)[C@]12CC[C@@H]1[C@H]3[C@@H](CN1c1ccccc1)O2 | EC50 | > 1 nM |
| O=C(c1ccccc1)N1C[C@H]2O[C@@]34CC[C@@H]1[C@@H]2[C@@]31CCN(CC2CC2)[C@@H]4Cc2cccc(O)c21 | EC50 | > 100 nM |
| Cc1cc(C)nc(N2C[C@H]3C[C@@]45CCC2C3[C@@]42CCN(CC3CC3)[C@@H]5Cc3cccc(O)c32)n1 (stereo partly shown) | EC50 | > 50 nM |
| O=C(c1ccccc1)N1C[C@H]2C[C@@]34CCC1C2[C@@]31CCN(CC2CC2)[C@@H]4Cc2ccccc21 (stereo partly shown) | EC50 | > 100 nM |
| Oc1ccc2c(c1)C13C(O)CN(CC4CC4)C(C2)C12CCC1C3[C@@H](CN1Cc1ccccc1)O2 (stereo partly shown) | EC50 | > 10 nM |
| Oc1ccc2c(c1)[C@]13CCN(CC4CC4)[C@H](C2)[C@]12CCC1C3[C@@H](CN1c1ccccn1)C2 (stereo partly shown) | EC50 | > 1 nM |

Now consider the entry below.
stdin: Field request: EC50 | item: Oc1ccc2c(c1)C13CCN(CC4CC4)C(C2)C12CCC1C3[C@@H](CN1c1nccs1)C2 (stereo partly shown)
stdout: > 1 nM

----------
biological target: opioid δ receptor (Homo sapiens); construct: expressed in transfected cells; host or cells: CHO cells; assay: Opioid receptor functional test (Lance Ultra cAMP Kit), δ receptor agonist activity; type: cell-based; conditions: maximum response relative to SNC80 taken as 100%; hydrochloride was used; read-out: δ Receptor Emax
Binary classification by Emax, with 90% as an inclusive lower bound for 1; all other cases are 0.

Here are 8 molecules together with their reported answers.
| molecule | measuredOn | answerLabel |
| --- | --- | --- |
| CN1CC[C@@]23c4cc(O)ccc4C[C@@H]1[C@]21CC[C@@H]2[C@H]3[C@@H](CN2C(=O)c2ccccc2)O1 | opioid δ receptor (Homo sapiens) | 1 |
| CC(C)COC(=O)N1C[C@H]2CC34CCC1C2C31CCN(CC2CC2)C4Cc2ccc(O)cc21 (some centres unmarked) | opioid δ receptor (Homo sapiens) | 0 |
| CC(C)NC(=O)N1C[C@H]2CC34CCC1C2C31CCN(CC2CC2)C4Cc2ccc(O)cc21 (some centres unmarked) | opioid δ receptor (Homo sapiens) | 0 |
| Cc1cc(C)nc(N2C[C@H]3CC45CCC2C3C42CCN(C[C@H](C)O)C5Cc3ccc(O)cc32)n1 (some centres unmarked) | opioid δ receptor (Homo sapiens) | 0 |
| Cc1cc(C)nc(N2C[C@H]3CC45CCC2C3C42CCN(CC3CC3)C5Cc3ccccc32)n1 (some centres unmarked) | opioid δ receptor (Homo sapiens) | 1 |
| Nc1ccc2c(c1)[C@]13CCN(CC4CC4)[C@H](C2)[C@]12CCC1C3[C@@H](CN1C(=O)c1ccccc1)O2 (some centres unmarked) | opioid δ receptor (Homo sapiens) | 1 |
| COc1ccc2c(c1)[C@]13CCN(CC4CC4)[C@H](C2)[C@]12CCC1C3[C@@H](CN1c1nc(C)cc(C)n1)C2 (some centres unmarked) | opioid δ receptor (Homo sapiens) | 1 |
| COc1cc2c(cc1[N+](=O)[O-])C[C@H]1N(CC3CC3)CC[C@@]23C2C4CC[C@@]13C[C@@H]2CN4c1nc(C)cc(C)n1 (some centres unmarked) | opioid δ receptor (Homo sapiens) | 0 |

stdin: Given the entry O=C(N1CCCCC1)N1C[C@H]2CC34CCC1C2C31CCN(CC2CC2)C4Cc2ccc(O)cc21 (some centres unmarked) , answer whether its Emax meets or surpasses 90%.
stdout: 1
